Data provenance is ChEMBL document CHEMBL1148558.

Target: C-C chemokine receptor type 4 (Homo sapiens)
Sequence (P51679 whole entry): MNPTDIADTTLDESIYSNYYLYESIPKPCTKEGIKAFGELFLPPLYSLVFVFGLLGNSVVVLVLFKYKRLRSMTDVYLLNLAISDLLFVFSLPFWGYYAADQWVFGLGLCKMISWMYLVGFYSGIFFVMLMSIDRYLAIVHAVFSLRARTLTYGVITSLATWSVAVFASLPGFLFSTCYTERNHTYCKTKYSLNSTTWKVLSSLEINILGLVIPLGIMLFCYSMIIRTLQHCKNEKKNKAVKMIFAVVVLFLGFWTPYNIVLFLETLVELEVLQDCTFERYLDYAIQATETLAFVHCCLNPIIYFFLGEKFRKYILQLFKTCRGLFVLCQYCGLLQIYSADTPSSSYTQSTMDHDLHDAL
Assay: Calcium mobilization mediated by CCR4 receptor in CEMS529 cells by FLIPR
Type: functional, cell-based
quantity: pIC50
In textbook form, pIC50 equals minus log to base ten of the concentration in mol/L.

Ask | For the compound shown here, O=C([C@H]1CCCCN1)N1CCN(c2nccc(NCc3ccc(Cl)cc3Cl)n2)CC1 , give the reported pIC50.
Reply | 8.00

---

Target: C-C chemokine receptor type 4 (Homo sapiens)
Sequence (P51679 whole entry): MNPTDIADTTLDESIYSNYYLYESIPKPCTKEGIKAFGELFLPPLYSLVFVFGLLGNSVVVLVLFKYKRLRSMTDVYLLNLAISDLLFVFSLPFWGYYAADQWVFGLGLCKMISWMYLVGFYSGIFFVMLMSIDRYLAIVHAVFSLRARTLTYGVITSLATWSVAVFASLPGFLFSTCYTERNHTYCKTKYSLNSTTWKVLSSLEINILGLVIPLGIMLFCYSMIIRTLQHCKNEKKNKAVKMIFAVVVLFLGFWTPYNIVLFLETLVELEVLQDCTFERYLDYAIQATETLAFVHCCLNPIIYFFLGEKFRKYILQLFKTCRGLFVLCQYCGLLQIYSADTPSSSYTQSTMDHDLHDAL
Test: Displacement of [125I]TARC from human CCR4 receptor transfected in HEK293 cells
Format: cell-based
Reported pIC50 values for a set of molecules
In textbook form, pIC50 equals minus log to base ten of the concentration in mol/L.

CN1CCCC(C(=O)N2CCN(c3nccc(OCc4ccc(Cl)cc4Cl)n3)CC2)C1 (stereo not given); 5.92
O=C([C@@H]1CCCCN1)N1CCN(c2nccc(NCc3ccc(Cl)cc3Cl)n2)CC1; 6.00
O=C(C1CCCNC1)N1CCN(c2nccc(NCc3ccc(Cl)cc3Cl)n2)CC1 (stereo not given); 6.10
CN1CCCC(C(=O)N2CCN(c3ccnc(NCc4ccc(Cl)cc4Cl)n3)CC2)C1 (stereo not given); 6.52
O=C([C@H]1CCCN1)N1CCN(c2nccc(NCc3ccc(Cl)cc3Cl)n2)CC1; 7.22
CC(C)[C@@H](CNc1nccc(OCc2ccc(Cl)cc2Cl)n1)NC(=O)C1CCCN(C)C1 (stereo not given in full); 5.25

Attention now shifts to the item below.
Ask | For the molecule shown here, O=C([C@H]1CCCCN1)N1CCN(c2nccc(NCc3ccc(Cl)cc3Cl)n2)CC1 , give the reported pIC50.
Reply | 7.30

---

Biological target: C-C chemokine receptor type 4 (Homo sapiens, UniProt P51679)
Experiment: Displacement of [125I]TARC from human CCR4 receptor transfected in HEK293 cells
Assay type: cell-based
pIC50: −log10 of the molar value.
quantity: pIC50

Example entries begin here.
CN1CCCC(C(=O)NCCNc2nccc(OCc3ccc(Cl)cc3Cl)n2)C1 (stereo not given); < 5.00
O=C(c1cccnc1)N1CCN(c2nccc(OCc3ccc(Cl)cc3Cl)n2)CC1; < 5.00
CN1CCCC(C(=O)N2CCN(c3nccc(NCc4ccc(Cl)cc4Cl)n3)CC2)C1 (stereo not given); 6.15

Ask | For the compound shown here, O=C(Cc1cccnc1)N1CCN(c2nccc(OCc3ccc(Cl)cc3Cl)n2)CC1 , give the reported pIC50.
Reply | < 5.00

Ask | For the compound shown here, Cn1cnc(CC(=O)N2CCN(c3nccc(OCc4ccc(Cl)cc4Cl)n3)CC2)c1 , give the reported pIC50.
Reply | < 5.00

---

Molecular target: C-C chemokine receptor type 4 (Homo sapiens)
Sequence (P51679 whole entry): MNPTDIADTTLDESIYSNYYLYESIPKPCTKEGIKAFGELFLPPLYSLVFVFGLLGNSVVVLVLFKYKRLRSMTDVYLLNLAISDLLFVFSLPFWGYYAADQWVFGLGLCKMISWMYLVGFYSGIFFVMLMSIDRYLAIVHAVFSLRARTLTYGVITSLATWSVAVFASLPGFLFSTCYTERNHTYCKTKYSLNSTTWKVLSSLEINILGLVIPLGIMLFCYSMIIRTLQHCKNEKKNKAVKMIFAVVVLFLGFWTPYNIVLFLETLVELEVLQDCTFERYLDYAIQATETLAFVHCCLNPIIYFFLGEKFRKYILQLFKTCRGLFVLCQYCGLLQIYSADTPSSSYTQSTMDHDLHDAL
Assay: Displacement of [125I]TARC from human CCR4 receptor transfected in HEK293 cells
Assay type: cell-based
pIC50: −log10 of the molar value.
quantity: pIC50

Example entries begin here.
O=C(C1CNC1)N1CCN(c2nccc(NCc3ccc(Cl)cc3Cl)n2)CC1; < 5.00
CN1CCCC(C(=O)NCCCNc2nccc(OCc3ccc(Cl)cc3Cl)n2)C1 (stereo not drawn); < 5.00

Ask | Value wanted: pIC50 (C-C chemokine receptor type 4 (Homo sapiens)) of entry O=C(C1CCNCC1)N1CCN(c2nccc(NCc3ccc(Cl)cc3Cl)n2)CC1
Reply | < 5.00
